System: MCF-7 cells
Assay type: cell-based, human
Conditions: MCF-7 and MDA-MB-231 versus MCF-10A
Non-standard residues stand in square brackets, D forms with d. Residues, ends and D or L forms follow the SMILES beside them. *: point of attachment. Acetyl(1,8-naphthalimido) = O=C1c2cccc3cccc(c23)C(=O)N1CC(=O)*; Caffeoyl = O=C(/C=C/c1ccc(O)c(O)c1)*; Nle = CCCC[C@H](N)C(=O)O
Result type: selectivity with respect to the studied tumor cell lines (in words)

compound="CC(C)C[C@H](NC(=O)[C@H](CCCCN)NC(=O)[C@H](C)NC(=O)[C@H](CC(C)C)NC(=O)[C@@H](N)CCCCN)C(=O)N[C@@H](C)C(=O)N[C@@H](CCCCN)C(N)=O [Si6, KLAKLAK-NH2] (H-KLAKLAK-NH2; N-terminus assumed)" result="do not show selectivity"
compound="CCCC[C@H](NC(=O)[C@H](CCCCN)NC(=O)CN1C(=O)c2cccc3cccc(c23)C1=O)C(=O)N[C@@H](C)C(=O)N[C@@H](CCCCN)C(=O)N[C@@H](CCCC)C(=O)N[C@@H](C)C(=O)N[C@@H](CCCCN)C(N)=O [Si14, 1,8-naphthalimideG-KnLAKnLAK-NH2] ({Acetyl(1,8-naphthalimido)}-K[Nle]AK[Nle]AK-NH2)" result="No selectivity"
compound="CCCC[C@H](NC(=O)[C@H](CCCCN)NC(=O)/C=C/c1ccc(O)c(O)c1)C(=O)N[C@@H](C)C(=O)N[C@@H](CCCCN)C(=O)N[C@@H](CCCC)C(=O)N[C@@H](C)C(=O)N[C@@H](CCCCN)C(N)=O [Si15, Caf-KnLAKnLAK-NH2] (Caffeoyl-K[Nle]AK[Nle]AK-NH2)" result="No selectivity"
compound="CC(C)C[C@H](NC(=O)[C@H](CCCCN)NC(=O)/C=C/c1ccc(O)c(O)c1)C(=O)N[C@@H](C)C(=O)N[C@@H](CCCCN)C(=O)N[C@@H](CC(C)C)C(=O)N[C@@H](C)C(=O)N[C@@H](CCCCN)C(N)=O [Si8, Caf-KLAKLAK-NH2] (Caffeoyl-KLAKLAK-NH2)" result="do not show selectivity"
compound="CC(C)C[C@H](NC(=O)[C@H](CCCCN)NC(=O)CN1C(=O)c2cccc3cccc(c23)C1=O)C(=O)N[C@@H](C)C(=O)N[C@@H](CCCCN)C(=O)N[C@@H](CC(C)C)C(=O)N[C@@H](C)C(=O)N[C@@H](CCCCN)C(N)=O [Si7, 1,8-naphthalimideG-KLAKLAK-NH2] ({Acetyl(1,8-naphthalimido)}-KLAKLAK-NH2)" result="do not show selectivity"
